For each entry below, report its IC50 value.
- Tested on: HCC1954 cells
- METHOD NOTES: Inhibition of HCC1954 cell growth (method analogous to BT-474)
- Assay type: cell-based
- TEST CONTEXT: Homo sapiens
Express the result in nM but write the number alone.

Query block: Name the recorded IC50 of the item "C/C=C(\C)[C@H]1OC(=O)[C@@H](C)NC(=O)[C@H]([C@H](C)CC)NC(=O)CN(C)C(=O)[C@@H](Cc2ccc(Cl)cc2)N(C)C(=O)[C@H](C)NC(=O)[C@@H](CC(C)C)OC(=O)/C(C)=C/C[C@H](O)[C@@H]1C" in your answer.
Result block: 4.37

Query block: Name the recorded IC50 of the item "C/C=C(\C)[C@H]1OC(=O)[C@@H](C)NC(=O)[C@H]([C@H](C)CC)NC(=O)CN(C)C(=O)[C@@H](Cc2ccc(Cl)cc2)N(C)C(=O)[C@H](C)NC(=O)[C@@H](CC(C)C)OC(=O)/C(C)=C/C[C@H](OC(=O)N(C)CCCCCCCCCCCCNC)[C@@H]1C" in your answer.
Result block: 15.4

Query block: Name the recorded IC50 of the item "C/C=C(\C)[C@H]1OC(=O)[C@@H](C)NC(=O)[C@H]([C@H](C)CC)NC(=O)CN(C)C(=O)[C@@H](Cc2ccccc2)N(C)C(=O)[C@H](C)NC(=O)[C@@H](CC(C)C)OC(=O)/C(C)=C/C[C@H](OC(=O)NCCCCO)[C@@H]1C" in your answer.
Result block: 4.95

Query block: Name the recorded IC50 of the item "C/C=C(\C)[C@H]1OC(=O)[C@@H](C)NC(=O)[C@H]([C@H](C)CC)NC(=O)CN(C)C(=O)[C@@H](Cc2ccccc2)N(C)C(=O)[C@H](C)NC(=O)[C@@H](CC(C)C)OC(=O)/C(C)=C/C[C@H](OC(=O)NCCCCCCCCO)[C@@H]1C" in your answer.
Result block: 1.66

Query block: Name the recorded IC50 of the item "C/C=C(\C)[C@H]1OC(=O)[C@@H](C)NC(=O)[C@H]([C@H](C)CC)NC(=O)CN(C)C(=O)[C@@H](Cc2ccccc2)N(C)C(=O)[C@H](C)NC(=O)[C@@H](CC(C)C)OC(=O)/C(C)=C/C[C@H](OC(=O)NCCCCCO)[C@@H]1C" in your answer.
Result block: 1.41

Query block: Name the recorded IC50 of the item "C/C=C(\C)[C@H]1OC(=O)C(C)(C)NC(=O)[C@H]([C@H](C)CC)NC(=O)CN(C)C(=O)[C@@H](Cc2ccc(Cl)cc2)N(C)C(=O)[C@H](C)NC(=O)[C@@H](CC(C)C)OC(=O)/C(C)=C/C[C@H](O)[C@@H]1C" in your answer.
Result block: 0.56

Query block: Name the recorded IC50 of the item "C/C=C(\C)[C@H]1OC(=O)C(C)(C)NC(=O)[C@H]([C@H](C)CC)NC(=O)CN(C)C(=O)[C@@H](Cc2ccc(C#N)cc2)N(C)C(=O)[C@H](C)NC(=O)[C@@H](CC(C)C)OC(=O)/C(C)=C/C[C@H](OC(=O)NCCCCCO)[C@@H]1C" in your answer.
Result block: 27.3

Query block: Name the recorded IC50 of the item "C/C=C(\C)[C@H]1OC(=O)C(C)(C)NC(=O)[C@H]([C@H](C)CC)NC(=O)CN(C)C(=O)[C@@H](Cc2ccc(Cl)cc2)N(C)C(=O)[C@H](C)NC(=O)[C@@H](CC(C)C)OC(=O)/C(C)=C/C[C@H](OC(=O)N(C)CCCCCCN(C)C(C)=O)[C@@H]1C" in your answer.
Result block: 2.07
